System: FADD−/− Jurkat cells
test name: Necroptosis inhibition assay, TNF-α-induced necroptosis (CellTiter-Glo 2.0)
Format: cell-based, human
run conditions: compound 10 μM; TNF-α 15 ng/mL, FADD−/− Jurkat cells
measured quantity: Necroptosis inhibition assay (Rescue %) 10 μM

1. Nc1ncc(-c2cnn(C3CCN(C(=O)CC4CCN(C(=O)C5CN(c6ccc7nnn(C8CCC(=O)NC8=O)c(=O)c7c6)C5)CC4)CC3)c2)nc1C(=O)O[C@@H](C(=O)Nc1ccc(F)cc1)c1ccccc1 (some centres unmarked) : 39.97
2. Nc1ncc(-c2cnn(C3CCN(CCC4CCN(C5=CC(=O)N(C6CCC(=O)NC6=O)C5=O)CC4)CC3)c2)nc1C(=O)O[C@@H](C(=O)Nc1ccc(F)cc1)c1ccccc1 (some centres unmarked) : −21.15
3. Nc1ncc(-c2cnn(C3CCN(C4CC5(CCN(CC6CCN(C(=O)CNc7ccc8c(c7)C(=O)N(C7CCC(=O)NC7=O)C8=O)CC6)CC5)C4)CC3)c2)nc1C(=O)O[C@@H](C(=O)Nc1ccc(F)cc1)c1ccccc1 (some centres unmarked) : −65.46
4. Nc1ncc(-c2cnn(C3CCN(C(=O)CCC4CCN(C(=O)C5CN(c6ccc7c(c6)C(=O)N(C6CCC(=O)NC6=O)C7=O)C5)CC4)CC3)c2)nc1C(=O)O[C@@H](C(=O)Nc1ccc(F)cc1)c1ccccc1 (some centres unmarked) : 9.58
5. COc1ccc(C(=O)N2CCC3(CC2)CC(N2CCC(CCN4CCC(n5cc(-c6cnc(N)c(C(=O)O[C@@H](C(=O)Nc7ccc(F)cc7)c7ccccc7)n6)cn5)CC4)CC2)C3)cc1N1CCC(=O)NC1=O : 33.71

====

Target chain: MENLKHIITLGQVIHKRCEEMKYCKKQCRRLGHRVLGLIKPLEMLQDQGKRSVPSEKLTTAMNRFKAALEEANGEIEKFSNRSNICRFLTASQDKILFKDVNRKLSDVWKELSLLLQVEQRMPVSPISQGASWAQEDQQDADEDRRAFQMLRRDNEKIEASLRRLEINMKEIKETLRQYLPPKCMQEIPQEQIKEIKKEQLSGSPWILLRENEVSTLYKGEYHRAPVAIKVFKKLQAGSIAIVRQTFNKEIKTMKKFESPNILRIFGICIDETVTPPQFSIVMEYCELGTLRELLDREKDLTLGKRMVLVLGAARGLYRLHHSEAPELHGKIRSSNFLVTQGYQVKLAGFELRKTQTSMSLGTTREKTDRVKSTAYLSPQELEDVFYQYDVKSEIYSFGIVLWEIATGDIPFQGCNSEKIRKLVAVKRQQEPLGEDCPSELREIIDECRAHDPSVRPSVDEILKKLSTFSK
pKd: −log10 of the molar value.
measured quantity: pKd

1) Nc1ncc(-c2cnn(C3CCN(CCCCCCNC(=O)CNc4ccc5c(c4)C(=O)N(C4CCC(=O)NC4=O)C5=O)CC3)c2)nc1C(=O)O[C@@H](C(=O)Nc1ccc(F)cc1)c1ccccc1 (stereo partly drawn) [TDH-132] : 8.92
2) Nc1ncc(-c2cnn(C3CCN(C(=O)COCCOCCNC(=O)C4CCN(c5ccc6c(c5)C(=O)N(C5CCC(=O)NC5=O)C6=O)CC4)CC3)c2)nc1C(=O)O[C@@H](C(=O)Nc1ccc(F)cc1)c1ccccc1 (stereo partly drawn) [TDH-195] : 8.16
3) Nc1ncc(-c2ccc(N3CCN(CC4CCN(C(=O)CNc5cccc6c5C(=O)N(C5CCC(=O)NC5=O)C6=O)CC4)CC3)nc2)nc1C(=O)OC(C(=O)Nc1ccc(F)cc1)c1ccccc1 (stereo not drawn) [TDH-232] : 6.59

====

assay system: MLKL (Homo sapiens, UniProt Q8NB16)
test name: MLKL degradation assay in HepG2 cell line (western blot)
Assay type: cell-based
Parameters: endogenous in cells; host or cells: HepG2 or HaCaT
run conditions: compound 1 μM; cell line not given
Use Criterion met when the recorded Degradation assay (Degradation %) 1 μM is no lower than 30%; use Criterion not met when it is lower.

1. Nc1ncc(-c2cnn(C3CCN(CCOCCOCCNC(=O)CNc4cccc5c4C(=O)N(C4CCC(=O)NC4=O)C5=O)CC3)c2)nc1C(=O)O[C@@H](C(=O)Nc1ccc(F)cc1)c1ccccc1 (some centres unmarked) [TDH-102] : Criterion not met
2. Nc1ncc(-c2cnn(C3CCN(CCOCCOCCNC(=O)CNc4ccc5c(c4)C(=O)N(C4CCC(=O)NC4=O)C5=O)CC3)c2)nc1C(=O)O[C@@H](C(=O)Nc1ccc(F)cc1)c1ccccc1 (some centres unmarked) [TDH-103] : Criterion not met
3. Nc1ncc(-c2cnn(C3CN(CC4CCN(C(=O)COc5cccc6c5C(=O)N(C5CCC(=O)NC5=O)C6=O)CC4)C3)c2)nc1C(=O)OC(C(=O)Nc1ccc(F)cc1)c1ccccc1 (centres unmarked) [TDH-298] : Criterion met
4. Nc1ncc(-c2cnn(C3CCN(CC4CCN(CC5CCN(C(=O)C6CN(C7=CC(=O)N(C8CCC(=O)NC8=O)C7=O)C6)CC5)CC4)CC3)c2)nc1C(=O)O[C@@H](C(=O)Nc1ccc(F)cc1)c1ccccc1 (some centres unmarked) [TDH-533] : Criterion met
5. Nc1ncc(-c2cnn(C3CCN(C(=O)CCC4CCN(C(=O)C5CN(c6ccc7nnn(C8CCC(=O)NC8=O)c(=O)c7c6)C5)CC4)CC3)c2)nc1C(=O)O[C@@H](C(=O)Nc1ccc(F)cc1)c1ccccc1 (some centres unmarked) [TDH-438] : Criterion met

====

Test system: FADD−/− Jurkat cells
test name: Necroptosis inhibition assay, TNF-α-induced necroptosis (CellTiter-Glo 2.0)
Type: cell-based, human
run conditions: compound 1 μM; TNF-α 15 ng/mL
Protocol: Necroptosis Inhibition Assay Necroptosis inhibition was evaluated by the following method. […] After incubation, the 96-well plate was left at room temperature for 30 minutes. […] After measuring the luminescence at 0.5 seconds per well using a plate scanner, the cytotoxicity and necroptosis inhibition rate for the compound were calculated using the measured values.
The threshold is inclusive: Necroptosis inhibition assay (Rescue %) 1 μM of exactly 30% counts as class 1; values below receive class 0.

1) Nc1ncc(C2=CCN(C(=O)CCCCCNC(=O)CNc3ccc4c(c3)C(=O)N(C3CCC(=O)NC3=O)C4=O)CC2)cc1C(=O)O[C@@H](C(=O)Nc1ccc(F)cc1)c1ccccc1 (stereo partly drawn) : class 0
2) Nc1ncc(-c2cnn([C@@H]3CCN(CC4CCN(C(=O)CNc5ccc6c(c5)C(=O)N(C5CCC(=O)NC5=O)C6=O)CC4)C3)c2)nc1C(=O)OC(C(=O)Nc1ccc(F)cc1)c1ccccc1 (stereo partly drawn) : class 1
3) Nc1ncc(-c2cnn(C3CCN(C[C@H]4CC[C@H](CNC(=O)C5CCN(c6cccc7c6C(=O)N(C6CCC(=O)NC6=O)C7=O)CC5)CC4)CC3)c2)nc1C(=O)O[C@@H](C(=O)Nc1ccc(F)cc1)c1ccccc1 (stereo partly drawn) : class 1
4) Nc1ncc(-c2cnn(C3CCN(CC4CCN(c5ccc6nnn(C7CCC(=O)NC7=O)c(=O)c6c5)CC4)CC3)c2)nc1C(=O)O[C@@H](C(=O)Nc1ccc(F)cc1)c1ccccc1 (stereo partly drawn) : class 1
5) Nc1ncc(C2=CCN(C(=O)COCCOCCNC(=O)CNc3cccc4c3C(=O)N(C3CCC(=O)NC3=O)C4=O)CC2)cc1C(=O)O[C@@H](C(=O)Nc1ccc(F)cc1)c1ccccc1 (stereo partly drawn) : class 0
6) Nc1ncc(-c2cnn(C3CCN(CCCCCCCCCCNC(=O)CNc4ccc5c(c4)C(=O)N(C4CCC(=O)NC4=O)C5=O)CC3)c2)nc1C(=O)O[C@@H](C(=O)Nc1ccc(F)cc1)c1ccccc1 (stereo partly drawn) : class 1
7) Nc1ncc(-c2cnn(C3CCN(C(=O)COCCOCCNC(=O)CNc4cccc5c4C(=O)N(C4CCC(=O)NC4=O)C5=O)CC3)c2)nc1C(=O)O[C@@H](C(=O)Nc1ccc(F)cc1)c1ccccc1 (stereo partly drawn) : class 1
8) Nc1ncc(-c2cnn([C@@H]3CCN(CCOCCOCCNC(=O)COc4ccc5c(c4)C(=O)N(C4CCC(=O)NC4=O)C5=O)C3)c2)nc1C(=O)OC(C(=O)Nc1ccc(F)cc1)c1ccccc1 (stereo partly drawn) : class 1
9) Nc1ncc(-c2cnn(C3CCN(C[C@H]4CC[C@H](CNc5ccc6c(c5)C(=O)N(C5CCC(=O)NC5=O)C6=O)CC4)CC3)c2)nc1C(=O)O[C@@H](C(=O)Nc1ccc(F)cc1)c1ccccc1 (stereo partly drawn) : class 0
10) Nc1ncc(-c2cnn(C3CCN(CC4CCN(c5cccc6c5C(=O)N(C5CCC(=O)NC5=O)C6=O)CC4)CC3)c2)nc1C(=O)O[C@@H](C(=O)Nc1ccc(F)cc1)c1ccccc1 (stereo partly drawn) : class 1
11) Nc1ncc(-c2cnn(C3CCN(CCCCCCCCCCNc4ccc5c(c4)C(=O)N(C4CCC(=O)NC4=O)C5=O)CC3)c2)nc1C(=O)O[C@@H](C(=O)Nc1ccc(F)cc1)c1ccccc1 (stereo partly drawn) : class 0

====

Necroptosis inhibition assay (Rescue %) 1 μM values, listed per item
Tested on: FADD−/− Jurkat cells
test name: Necroptosis inhibition assay, TNF-α-induced necroptosis (CellTiter-Glo 2.0)
Type: cell-based, human
run conditions: compound 1 μM; TNF-α 15 ng/mL
measured quantity: Necroptosis inhibition assay (Rescue %) 1 μM

1. Nc1ncc(-c2cnn(C3CCN(C(=O)COCCOCCNC(=O)C4CCN(c5cccc6c5C(=O)N(C5CCC(=O)NC5=O)C6=O)CC4)CC3)c2)nc1C(=O)O[C@@H](C(=O)Nc1ccc(F)cc1)c1ccccc1 (some centres unmarked) [TDH-194] : 67.94
2. Nc1ncc(-c2cnn(C3CCN(CCOCCOCCNC(=O)C4CCN(c5cccc6c5C(=O)N(C5CCC(=O)NC5=O)C6=O)CC4)CC3)c2)nc1C(=O)N[C@@H](C(=O)Nc1ccc(F)cc1)c1ccccc1 (some centres unmarked) [TDH-213] : 18.34
3. Nc1ncc(-c2cnn(C3CCN(C(=O)c4cn(C5CCN(C(=O)COc6ccc7c(c6)C(=O)N(C6CCC(=O)NC6=O)C7=O)CC5)cn4)CC3)c2)nc1C(=O)O[C@@H](C(=O)Nc1ccc(F)cc1)c1ccccc1 (some centres unmarked) [TDH-355] : 22.40
4. Nc1ncc(-c2ccc(N3CCN(CC4CCN(C(=O)COc5ccc6c(c5)C(=O)N(C5CCC(=O)NC5=O)C6=O)CC4)CC3)nc2)nc1C(=O)OC(C(=O)Nc1ccc(F)cc1)c1ccccc1 (centres unmarked) [TDH-256] : 45.87
5. Nc1ncc(-c2cnn(C3CCN(CCOC4CCN(C(=O)CCc5cccc6c5CN(C5CCC(=O)NC5=O)C6=O)CC4)CC3)c2)nc1C(=O)O[C@@H](C(=O)Nc1ccc(F)cc1)c1ccccc1 (some centres unmarked) [TDH-387] : 37.82
